Experiment: doxorubicin toxicity protection in MRP-1 cells – H69AR cells, CellTiter-Glo, duplicate, MRP-1 activator project, pilot screen (AID 807);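 also: compound pretreatment 18-22 h then 72 h combined with doxorubicin; 0% = doxorubicin alone and 100% = vehicle without doxorubicin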
Details: H69AR viability with doxorubicin, CellTiter-Glo luminescence; at 10 µM; stronger effect = higher value
// values below are reported viability increase
Report the value in % with no unit label.

Below, each entry is followed by its recorded viability increase result.
COMPOUND | UNITS_OF_MEASURE | viability increase
COc1cc(NC(=O)CN(c2cc(C)cc(C)c2)S(=O)(=O)c2c(C)noc2C)cc(OC)c1 | % | -4.92
CC1Cc2nc(SCC(N)=O)n(Cc3ccccc3)c(=O)c2S1 (stereo not given) | % | -1.84
COc1ccc(CC(=O)Nc2cc(=O)n(C)c(=O)n2C)cc1 | % | 0.44
COc1ccc(-c2nc(-c3cccc(C(F)(F)F)c3)no2)cc1OC | % | -0.18

Now for another entry.
Qu. Report viability increase for CCN1C(=O)C(O)(CC(=O)c2ccc3c(c2)OCCO3)c2ccccc21 (stereo not given) please.
Ans. -2.07

----------
Attribute: growth inhibition
Assay: S. cerevisiae growth inhibition in restrictive medium, OD615, pilot screen, restrictive growth control, yeast lifespan reduction project (AID 706);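 also: modified DeaD lifespan yeast strain shifted to restrictive glucose medium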
Details: OD615, 48 h, at 10 µM, stronger effect = higher value
The response must be a number in % with no trailing unit.

Observe how each entry below is paired with its result.
MOLECULE | MEASURED_RESULT
O=C(c1cnn(-c2ccccc2)c1-n1cccc1)N1CCN(C2CCCCC2)CC1 | 5.93
COc1cccc2sc(Nc3nnc(-c4ccccc4Cl)o3)nc12 | -13.7
COc1cc(-c2nc(-c3ccncc3)no2)cc(OC)c1OC | 11.1
COc1ccc(OCCCC(=O)Nc2nncs2)cc1 | -0.545
CCOc1ccc(N(CC(=O)NC2CCCC(C)C2C)S(=O)(=O)c2c(C)noc2C)cc1 (stereo unspecified) | -14.4

Qu. Quick one: growth inhibition of Cc1ccc(-c2noc(CN3CCN(c4ccccc4F)CC3)n2)cc1 ?
Ans. -1.21

Qu. What does the data say about its growth inhibition? Entry: CCC(C)(C(=O)NC1CCCC1)N(CC1CCCO1)C(=O)CNC(=O)c1ccccc1 (stereo unspecified)
Ans. -12.3

----------
Experiment: growth suppression of yeast trafficking mutant, preliminary HTS, modulators of trafficking downstream of Golgi apparatus project, 1536-format plate, OD 615 nm (AID 637)
Conditions: yeast transport mutant growth, absorbance 615 nm, 18 h
Calls of active or inactive are those of the source. Rule as the data show it: active = inhibition above about 30%; inactive = the rest.
Permitted responses: active, inactive

Qu. Each molecule tested received a call. Report the one for COc1ccc(NC(=O)NCCN2C(=O)C3C4C=CC(C4)C3C2=O)cc1 (stereo not given) .
Ans. inactive

----------
Biological target: Receptor tyrosine-protein kinase erbB-2 (Homo sapiens)
Assay: Her2 expression decrease, cell viability multiplex – SKBR3 breast tumor cells, AlphaScreen, ATP viability, primary screen (AID 461);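 also: lower value means less Her2 protein in the cells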
Conditions: 18-24 h, at 10 µM, stronger effect = lower value
Activity calls are given as the source filed them.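 Rule for the calls: active = Her2 level under about 52% in both replicate screens, with viability over 70% of control (limit read from the data); inconclusive = Her2 under the limit in one screen only, or viability under 70%; inactive = Her2 level above the set limit.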
Her2 level values for the compounds below.

COMPOUND | TESTED_SYSTEM | Her2 level
CN(CCCNC(=O)c1cn(C)c2ccc(S(=O)(=O)N(C)C)cc2c1=O)c1ccccc1 | Receptor tyrosine-protein kinase erbB-2 (Homo sapiens) | 90% (inactive)
COc1cc2c(cc1OC)-c1nnc(-c3cccs3)n1C(C)(C)C2 | Receptor tyrosine-protein kinase erbB-2 (Homo sapiens) | 95.5% (inactive)
O=C(NCCOC(=O)C1COc2ccccc2O1)C1COc2ccccc2O1 (stereo not drawn) | Receptor tyrosine-protein kinase erbB-2 (Homo sapiens) | 95% (inactive)
Oc1cccc(C=NCc2ccccc2)c1O | Receptor tyrosine-protein kinase erbB-2 (Homo sapiens) | 82.5% (inactive)
Cc1cc(NC(=O)CSc2nc3c(c(=O)n2Cc2ccccc2)SC(C)C3)no1 (stereo not drawn) | Receptor tyrosine-protein kinase erbB-2 (Homo sapiens) | 106% (inactive)

Qu. Requested read-out: Her2 level. Entry: CCOC(=O)c1ccc(-n2c(C)nc3c(cnn3-c3ccccc3C)c2=O)cc1
Ans. 108% (inactive)

Qu. Query (compound): Cc1nnc(NC(=O)c2ccco2)s1 ; field requested: Her2 level
Ans. 92.5% (inactive)

Qu. Data request, read-out Her2 level, for CCOc1ccc(N2CC(C(=O)Nc3ccccc3OC)CC2=O)cc1 (stereo not drawn)
Ans. 98% (inactive)

Qu. Fill in: Her2 level of CCCCN(C)Cc1c(O)ccc2c(-c3ccccc3)cc(=O)oc12 is ___
Ans. 102% (inactive)

Qu. # input compound: O=C(c1sc2ccccc2c1Cl)N(Cc1cccs1)C1CCS(=O)(=O)C1 (stereo not drawn) ; wanted: its Her2 level
Ans. 100% (inactive)

Qu. So what does the record say about Her2 level for CCOC(=O)N1CCN(C(c2ccc(Cl)cc2)c2sc3nc(C)nn3c2O)CC1 (stereo not drawn) ?
Ans. 89% (inactive)

Qu. Dear colleague, I am looking for the recorded Her2 level of the following compound: C/C=C/CSc1nc2c(c(=O)[nH]c(=O)n2C)n1Cc1ccc(C)cc1
Ans. 98.5% (inactive)

Qu. So what does the record say about Her2 level for Nc1nc(N2CCCCC2)nc(N(c2ccccc2)c2ccccc2)n1 ?
Ans. 104% (inactive)

Qu. For the compound CCOc1ccc(Cn2nnc(C(=O)Nc3cc(C)cc(C)c3)c2N)cc1 , what Her2 level is on record?
Ans. 90.5% (inactive)

Qu. So what's the measured Her2 level for this one? C/C=C/COC(=O)c1[nH]c2c(c1C)C(=O)CC(c1ccc(N(C)C)cc1)C2 (stereo not drawn)
Ans. 94% (inactive)

Qu. Tell me the measured Her2 level of CCCCn1c(CN2CCN(c3ccccc3)CC2)nc2c1c(=O)n(C)c(=O)n2C , please.
Ans. 105% (inactive)

Qu. What value of Her2 level has been recorded for this entry: Cc1nnc(SCC(=O)Nc2ccc3c4c(cccc24)CC3)n1C
Ans. 79% (inactive)

Qu. For the compound shown here, COC(=O)CSC1=NS(=O)(=O)c2ccccc21 , give the reported Her2 level.
Ans. 92% (inactive)

Qu. Fill in the blank: the reported Her2 level of O=C(NC1CCCCCC1)c1c(F)c(F)c(F)c(F)c1F is ____.
Ans. 92% (inactive)

Qu. Value lookup for Her2 level; key = CCOc1ccc(C2CC(c3ccccc3C)n3nc(N)nc3N2)cc1 (stereo not drawn)
Ans. 93.5% (inactive)

Qu. Fill in: Her2 level of O=C(CC1Oc2ccc(Cl)cc2NC1=O)NC1CCCCCC1 (stereo not drawn) is ___
Ans. 87.5% (inactive)

Qu. Param item = Cc1onc(-c2c(Cl)cccc2Cl)c1C(=O)NCC1CCCO1 (stereo not drawn) ; retrieve measured Her2 level.
Ans. 104% (inactive)

Qu. Fill in: Her2 level of Cc1cccc(N2CCN(C(=O)Cn3nc(Cc4ccncc4)c4ccccc4c3=O)CC2)c1C is ___
Ans. 82% (inactive)

----------
Test: RAM signaling pathway blockade in yeast – S. cerevisiae, Pdr1DBD-CYC8 efflux-inhibited sensitized strain, primary screen (AID 1298);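 also: 0% = DMSO untreated cells without growth and 100% = 10 µM 1-NA-PP1 full growth; higher means more yeast growth rescued from 5-FOA killing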
Details: S. cerevisiae cbk1-as DSE1-URA3 strain, 5-FOA growth OD615, 2 d; at 50 µM; stronger effect = higher value
PROPERTY_MEASURED: RAM network inhibition (%)
Answer with a number only, understood to be in %.

Worked set:
MOLECULE | RAM network inhibition (%)
Cc1c(C)n(C(=O)CSc2nncn2C)c2ccccc12 | 3
CCOCCCNC(=O)Cn1cc2c(n1)CCCCC2 | 3.72
CCN(CC)S(=O)(=O)c1ccc(Cl)c(C(=O)Nc2nnc(C)s2)c1 | 4.33
Cc1ccc(S(=O)(=O)C(C#N)c2nc3ccccc3nc2N2CCCCC2)cc1 (stereo unspecified) | 5.83
CCCC(=O)NCCc1nc2ccccc2n1CCC | -1.16
Cc1nnc(NC(=O)c2ccco2)s1 | 0.21
O=C(CCNS(=O)(=O)c1cccc2nsnc12)NCc1cccs1 | 3.13
CC1=C(C(=O)Nc2ccc(F)cc2)C(c2cccc(C)c2)n2nc(CCCO)nc2N1 (stereo unspecified) | 1.3
CCN(Cc1ccccc1)C(=O)CSc1nc(C)cc(C)c1C#N | 0.99
COc1ccc(CC(=O)Nc2cc(=O)n(C)c(=O)n2C)cc1 | -2.12

For the next question, use this molecule.
Qu. I would be grateful if you could share the reported RAM network inhibition for CC1CN(Cc2nc3c(c(=O)n(C)c(=O)n3C)n2Cc2ccccc2)CC(C)O1 (stereo unspecified) .
Ans. 2.1

----------
Assay: S. cerevisiae growth inhibition in permissive medium (OD615), pilot counter-assay for S. cerevisiae lifespan shortening project, permissive growth control (AID 705)
Details: OD615, 24 h, at 10 µM, stronger effect = higher value
Label Condition met when growth inhibition >= -10%; otherwise Condition not met.

Illustrative cases are given below, each with its answer.
MOLECULE | ANSWER_LABEL
Cc1ccnc2c(N3C(=O)C4C5C=CC(C5)C4(C)C3=O)cccc12 (stereo not given) | Condition not met
CCCOc1ccc(C2C(C(=O)OC)=CN(CCOC)C=C2C(=O)OC)cc1 | Condition not met
CCOc1ccccc1Oc1c(C)oc2cc(OC(=O)N3CCOCC3)ccc2c1=O | Condition not met

Qu. Form field: growth inhibition at least -10%? Entry: CCOc1ccc(N(C(C)C(=O)NC2CCCCCC2)S(C)(=O)=O)cc1 (stereo not given)
Ans. Condition met

Origin of values: PubChem BioAssay
